Ref: patent US12275778

study.target: cardiac troponin T (recombinant human) (human)
experiment.notes: SPR, 37C
Measured Kd, listed per entry.
Reply with just the number (in nM).

Fab combination 5 (antibody, V domains shown) VH: EVQLQQSGPELVKPGASVKMSCKASGYTFTDYFMKWVKQSHGKSLEWIGDINPNNGETWYNQKFKDKATLTVDKSSSTAYMQLNSLTSEDSAVYYCATRYFDFWGQGTTLTVSS VL: DIVLTQSPASLAVSLGQRATISCKASQSVDYDGTSYMNWFQQKAGQPPKRLIYAASNLESGIPARFSGRGSGTDFALNIHPVEEEDAATYYCQQSNEDPYTFGGGTKLEIKR ... 0.23

Lab note: next binder to report on.
// Kd value for Fab combination 9 (antibody, V domains shown) VH: EVQLQQSGPELVKPGASVKMSCKASGYTFTDYIMKWVKQSHGKSLEWIGDINPNNGETFYNQKFKDKATLTVDKSSSTAYMQLNSLTSEDSAVYYCATRVFDYWGQGTTLTVSS VL: DIVLTQSPASLAVSLGQRATISCKASQSVDYDGTSYMNWFQQKAGQPPKRLIYAASNLESGIPARFSGRGSGTDFALNIHPVEEEDAATYYCQQSNEDPYTFGGGTKLEIKR : 1.2
